- Test system: M19-MEL
- test protocol: NCI tumour cell line growth inhibition, 48 h
Activity calls are given as the source filed them. Cut-off read from the data, not from the text of the source: active = GI50 up to about 1.1 µM and inactive = higher.
I'd be grateful if you could share measured GI50 for these entries.

INPUT: Supply measured GI50 of `O=c1c2ccccc2c(=O)n2n1CC=CC2` in your reply.
OUTPUT: > 100 µM (inactive)

INPUT: Supply measured GI50 of O=C(O)C[C@H]1CCCCC12CCOC2=O (stereo not given in full) in your reply.
OUTPUT: > 100 µM (inactive)

INPUT: Report measured GI50; entry is COC(=O)CC1CC2(C(=O)OC)c3[nH]c4ccccc4c3CCN2C1=O (stereo not given)
OUTPUT: > 100 µM (inactive)

INPUT: Read the entry `CSC(=S)N(C)NC(=O)c1cccc(C(=O)NN(C)C(=S)SC)n1` and write its reported GI50.
OUTPUT: 31 µM (inactive)

INPUT: Name the recorded GI50 of the item COc1ccc(C(=O)C(c2ccc(OC)cc2)C2(O)C(=O)Nc3ccccc32)cc1 (stereo not given) in your answer.
OUTPUT: > 100 µM (inactive)

INPUT: Item `CCOC(=O)/C(C#N)=C(O)/C(=C/c1ccccc1Cl)NC(=O)c1ccccc1` : provide GI50
OUTPUT: > 100 µM (inactive)

INPUT: State its GI50 for this molecule: `NCc1ccccc1-c1c2nc(c(-c3ccccc3CN)c3ccc([nH]3)c(-c3ccccc3CN)c3nc(c(-c4ccccc4CN)c4ccc1[nH]4)C=C3)C=C2`
OUTPUT: 22.2 µM (inactive)

INPUT: Hello, please tell me recorded GI50 for this one: `Cc1cccc(C(C)(C)C)c1NC(=O)CCl`
OUTPUT: > 100 µM (inactive)

INPUT: Indicate its recorded GI50; the molecule in question is `COc1ccc(S(=O)(=O)Nc2ccccc2C(=O)O)cc1`
OUTPUT: > 100 µM (inactive)

INPUT: Return GI50 (reported value) for this molecule: O=C1CC2CC3OC3[C@H]3c4cc5c(cc4C(=O)N1C23)OCO5 (stereo not given in full)
OUTPUT: > 100 µM (inactive)
